- methodDescription: tubulin staining increase by stabilizing compounds – imaging, high-content imaging, primary screen (AID 2205)
- measurementContext: HeLa tubulin immunostaining HCS, 24 h, at 10 µM, share of cells brighter than vehicle mean+2SD
Screen size: about 200,000 compounds; about 1,600 (0.8%) were called active.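 How the source made its calls: active means plate Z-score above 3 for both tubulin-high and condensed-nucleus cell shares, with cell loss under 80%, at 10 µM; inactive means the rest, inconclusive results apart.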 For the sample, actives were picked, then their nearest neighbours and some compounds at random.
One label from this list, please: true for active, false for inactive

# molecule, categoryLabel
data = [
    ("O=C(NNc1ccccn1)c1ccc(Cl)nc1", "false"),
    ("Cc1cc(C)cc(C(=O)NCC(=O)OCC(=O)N2CCCCC2)c1", "false"),
    ("CCOc1ccc2c(c1)C(c1ccc(C)cc1)=NNC(c1ccc(C)cc1)=N2", "true"),
    ("CCC(=O)/C=C1\\Sc2ccccc2N1CC", "false"),
    ("C=CCn1c(SCc2c(C)noc2C)nc2sc3c(c2c1=O)CCC(C)C3 (stereo unspecified)", "true"),
]

Request: Test call for this molecule, please: CCc1ccc(-n2c(=S)sc3c(=O)n(-c4ccccc4OC)c(=S)[nH]c32)cc1
Result: false

Request: Next up: NS(=O)(=O)c1ccc(CCNC(=O)CCCn2c(SCC(=O)N3CCCC3)nc3ccsc3c2=O)cc1
Result: false

Request: Next up: Cc1cc(NC(=O)CSc2nc(C(C)C)nc3sc4c(c23)CCC(C)C4)no1 (stereo unspecified)
Result: false

Request: Next up: CCN1CCN(C(=O)c2ccccc2N(C)S(=O)(=O)c2ccc(C)cc2)CC1
Result: false

Request: Next up: CC(C)c1csc(CN2CCC(CO)(Cc3ccccc3)CC2)n1
Result: false

Request: Next up: CCOC(=O)N1CCN(C(=O)c2ccccc2N(Cc2ccccc2)S(=O)(=O)c2ccc(OC)cc2)CC1
Result: true

Request: Next up: Cc1cccc(OCCCC(=O)Nc2ccc(S(=O)(=O)N3CCCC3)cc2)c1
Result: false

Request: Next up: Cc1ccc2nc(-c3cccc(Br)c3)cc(C(=O)Nn3cnnc3)c2c1
Result: false

Request: Next up: Cc1nnc(NC(=O)CSc2nccn2-c2cccc(C)c2C)s1
Result: true

Request: Next up: O=C(N/N=C/c1ccc(OCC2COCCO2)cc1)c1ccc(Br)cc1 (stereo unspecified)
Result: false

Request: Next up: Cc1ccc(C2=Nc3c(ccc4ccccc34)C(c3ccncc3)=NN2)cc1
Result: false

Request: Next up: COc1ccc(N2CCN(C(=O)C3CCN(S(=O)(=O)c4ccc(C)cc4)CC3)CC2)cc1
Result: false

----------
- methodDescription: tubulin staining increase by stabilizing compounds – imaging, high-content imaging, primary screen (AID 2205);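 on toxicity: 0% = mean cell density of plate MIN control wells and 100% = no cells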
- measurementContext: HeLa tubulin immunostaining HCS, 24 h, at 10 µM; measured here: cytotoxicity by cell density
The whole screen tested about 200,000 compounds, of which about 1,600 (0.8%) were called active. The full list was thinned out, with actives kept by preference.
Param label: returns fulfilled when toxicity < 9%, returns not fulfilled otherwise, including exact equality.

Observe how each entry below is paired with its result.
# compound, categoryLabel
data = [
    ("COc1ccc(N2CCN(C(=O)C3CCN(S(=O)(=O)c4ccc(C)cc4)CC3)CC2)cc1", "not fulfilled"),
    ("COc1cccc(C(=O)Nc2ccc(N3CCCC3)cc2)c1", "not fulfilled"),
]

Request: Does the reported toxicity of the following compound sit strictly below 9%? COc1ccc(C2NC(=S)NC3=C2CCc2ccccc23)cc1OC (stereo not drawn)
Result: fulfilled

Request: Next up: Cc1cc2cc3c(cc2nc1SCC(=O)Nc1c(C)cccc1C)CCC3
Result: not fulfilled

Request: Next up: CCc1ccccc1NC(=O)Cc1cn(C)c2ccccc12
Result: fulfilled

Request: Next up: O=C(Cc1ccccc1)NC(=S)Nc1ccc(N2CCCCC2)cc1
Result: fulfilled

Request: Next up: CCOC(=O)C1=C(C)Nc2nc3ccccc3n2C1c1cccs1 (stereo not drawn)
Result: fulfilled

Request: Next up: O=C(Nc1ccccc1)/C(=C/c1ccc([N+](=O)[O-])cc1)NC(=O)c1ccccc1
Result: fulfilled

Request: Next up: S=C(NCc1ccc2c(c1)OCO2)NCc1ccco1
Result: fulfilled

Request: Next up: Nc1ccc(Nc2ccccc2)cc1
Result: fulfilled

Request: Next up: Cc1cc(C)n(-c2cc(Oc3ccccc3)ncn2)n1
Result: fulfilled

Request: Next up: CCCCOc1ccc(NC(=O)[C@@H]2CCCN2C(=O)C2CCN(S(=O)(=O)c3ccc(C)cc3)CC2)cc1
Result: not fulfilled

Request: Next up: Cc1cc(C)c(C#N)c(SCC(=O)Nc2ccccc2)n1
Result: fulfilled

Request: Next up: COc1ccccc1NC(=O)C1=C(C)Nc2nc3ccccc3n2C1c1cccs1 (stereo not drawn)
Result: not fulfilled

Request: Next up: Cc1cccc(NC(=O)c2sc(-c3ccccc3)nc2-c2ccc([N+](=O)[O-])cc2)c1
Result: not fulfilled

Request: Next up: COc1ccc(C2C(C#N)=C(N)Oc3cc(N)ccc32)cc1OC (stereo not drawn)
Result: not fulfilled

Request: Next up: Cc1cccc(OCCCC(=O)Nc2ccc(S(=O)(=O)N3CCCC3)cc2)c1
Result: fulfilled

Request: Next up: CN(C)CCCn1c(SCCN2C(=O)c3ccccc3C2=O)nc2ccccc2c1=O
Result: fulfilled

Request: Next up: CC(C)n1c(=O)[nH]c2cc(C(=O)Nc3ccccc3)ccc21
Result: fulfilled

Request: Next up: COc1ccc(CN(C)C(C)C(=O)NC2CCCc3ccccc32)cc1 (stereo not drawn)
Result: not fulfilled

Request: Next up: CCOc1ccc(C2C(C(=O)NC)=C(C)Nc3nc4ccccc4n32)cc1OC (stereo not drawn)
Result: fulfilled

----------
- methodDescription: tubulin staining increase by stabilizing compounds – imaging, high-content imaging, primary screen (AID 2205)
- measurementContext: HeLa tubulin immunostaining HCS, 24 h, at 10 µM; measured here: nuclear condensation Hoechst responders, stronger effect = higher value, share of cells brighter than vehicle mean+2SD
Out of some 200,000 compounds screened, about 1,600 (0.8%) were called active. Many of the other results were omitted from the sample, so actives are more common in it than they were.
Assign 1 to entries whose % Hoechst-high responders meets or exceeds 2%; assign -1 to the rest.

Observe how each entry below is paired with its result.
# compound, categoryLabel
rows = [
    ("CCOC(=O)N1CCN(S(=O)(=O)c2ccc(C(=O)Nc3ccc(F)cc3F)cc2)CC1", 1),
    ("COc1ccc(C(=O)n2nc(-c3ccc(C)cc3)nc2N)cc1OC", 1),
    ("CC1(C)CC(=O)C(CC(=O)N2CCC(Cc3ccccc3)CC2)C(=O)C1", 1),
    ("Oc1ccc(Cl)cc1/C=N/c1nc2ccccc2[nH]1", 1),
    ("Cc1cc(-c2csc(N)n2)c(C)n1Cc1ccccc1", 1),
    ("Cc1ccc2nc(-c3cccc(Br)c3)cc(C(=O)Nn3cnnc3)c2c1", 1),
]

Request: Decide: % Hoechst-high responders of CCOC(=O)CC(NC(=O)C1c2ccccc2Oc2ccccc21)c1ccc(C)cc1 (configuration not stated) >= 2%?
Result: -1

Request: Next up: NS(=O)(=O)c1ccc(CCNC(=O)CCCn2c(SCC(=O)N3CCCC3)nc3ccsc3c2=O)cc1
Result: 1

Request: Next up: COc1ccccc1C(c1nnnn1CC1CCCO1)N1CCN(c2ccccc2)CC1 (configuration not stated)
Result: -1

Request: Next up: CC(/C=N/NC(=O)c1cc(-c2ccc3ccccc3c2)n[nH]1)=C\c1ccco1
Result: 1

Request: Next up: CN1C(=O)/C(=C\c2ccc(-c3ccccc3)o2)SC1=S
Result: -1

----------
- methodDescription: tubulin staining increase by stabilizing compounds – imaging, high-content imaging, primary screen (AID 2205)
- measurementContext: HeLa tubulin immunostaining HCS, 24 h, at 10 µM; measured here: nuclear condensation Hoechst responders, stronger effect = higher value, share of cells brighter than vehicle mean+2SD
About 1,600 (0.8%) of roughly 200,000 compounds were called active. This is one part of a sample in which actives are shown more often than they occur.
Some compounds, each annotated with its measured % Hoechst-high responders.
Quick note: give the figure in %, leave out the unit.

# compound, % Hoechst-high responders, %
rows = [
    ("CCC1=C(C(=O)OC)C(c2cc(OC)ccc2OC)C(C#N)=C(N)O1 (configuration not stated)", 3.6),
    ("C=CCSC1=C(C#N)C(c2cc(Br)c(O)c(OC)c2)CC(=O)N1 (configuration not stated)", 5.45),
    ("CCC(=O)Nc1cccc(NC(=O)c2cccnc2)c1", 1.83),
    ("CC(C)OCCCNC(=O)c1cc(Sc2ccc(F)cc2)nc2ccccc12", 1.81),
    ("COC(=O)CSC1=C(C#N)C(c2ccccc2OC)C(C(=O)OC)C(=O)N1 (configuration not stated)", 1.9),
    ("CN1CCN(c2ccc(NC(=O)c3ccc4c(c3)[nH]c(=O)n4Cc3ccc(F)cc3)cc2)CC1", 2.93),
    ("CCOc1[nH]n(-c2ccc(Cl)cc2)c(=O)c1C=Nc1ccc(O)cc1", 12.9),
    ("CSc1nc2ccc(NC(=O)c3c(F)cccc3F)cc2s1", 3.31),
    ("Cc1ccc(C2CC(=O)NC(SCC(=O)OCc3ccccc3)=C2C#N)o1 (configuration not stated)", 13),
    ("CN(C)CCCn1c(SCCN2C(=O)c3ccccc3C2=O)nc2ccccc2c1=O", 1.95),
]

Next compound, % Hoechst-high responders to be filled in.
Request: Query (compound): COc1ccc2nc(Nc3nc4ccc(NC(C)=O)cc4s3)sc2c1 ; field requested: % Hoechst-high responders
Result: 3.35
